- subject of test: T1, human CCR8 (human, UniProt P51685 1-355)
- T1 construct: whole, on cells; construct used for the overexpressing cell lines is not described; also called hCCR8
- assay name: FACS, CHO-K1-hCCR8 cells
For each record, write down the corresponding pEC50.
One number for each entry, as −log10 of the molar value.

Below: 2 binders and their reported pEC50.
binder="PR004126 (antibody, human IgG1, kappa, V domains shown, chimeric, human IgG1 constant region) VH: EVQLVESGGGLVQPKGSLKLSCAASGFTFSTNAMNWVRQAPGKGLEWVGRIRSKSNNYATYYADSVKDRFTISRDDSQSMLYLQMNNLKTEDTAMYYCVRGKENGNYYAMDFWGQGTSVTVSA VL: DIVITQAAPSVPVTPGESVSISCRSSKSLLHSNGNTYLYWFLQRPGQSPQLLIYRMSNLASGVPDRFSGSGSGTAFTLRISRVEAEDVGVYYCMQHLEYPFTFGAGTKLELKR" numeric_result=9.37
binder="PR004124 (antibody, human IgG1, kappa, V domains shown, chimeric, human IgG1 constant region) VH: EVKVEESGGGLVQPGGSMKLSCAASGFTFNTYAMNWVRQAPGKGLEWVARIRSKSNNYATYYADSVKDRFTISRDDSQSMLYLQMNNLKTEDTAMYYCVRGKDYGNYYAMDFWGQGTSLTVSS VL: DIVMTQDELSNPVTSGESVSISCRSSKSLLHSNGNTYLYWFLQRPGQSPQLLIYRMSNLASGVPDRFSGSGSGTAFTLRISRVEAEDVGVYYCMQHLEYPFTFGGGTKLELKR" numeric_result=9.35

Now, please, on to the next binder.
response.value for PR004127 (antibody, human IgG1, kappa, V domains shown, chimeric, human IgG1 constant region) VH: EVQLVETGGGLVQPKGSLKLSCAASGFTFNTNAMNWVRQAPGKGLEWVARIRSKSNNYATYYADSVKDRFTISRDDSQNMLYLQMNNLKTEDTAMYYCVRGKENGNYYAMDFWGQGTSVTVSS VL: DIVMTQAATSVLVTPGESVSISCRSSKSLLYSNGNTYLYWFLQRPGQSPQLLIYRMSNLASGVPDRFSGSGSGTAFTLRISRVEAEDVGVYYCMQHLEYPFTFGGGTKLEMKR (field: pEC50) = 9.25
